- ASSAY SYSTEM: CYP2D6 (Homo sapiens, UniProt P10635)
- Sequence (P10635 whole entry): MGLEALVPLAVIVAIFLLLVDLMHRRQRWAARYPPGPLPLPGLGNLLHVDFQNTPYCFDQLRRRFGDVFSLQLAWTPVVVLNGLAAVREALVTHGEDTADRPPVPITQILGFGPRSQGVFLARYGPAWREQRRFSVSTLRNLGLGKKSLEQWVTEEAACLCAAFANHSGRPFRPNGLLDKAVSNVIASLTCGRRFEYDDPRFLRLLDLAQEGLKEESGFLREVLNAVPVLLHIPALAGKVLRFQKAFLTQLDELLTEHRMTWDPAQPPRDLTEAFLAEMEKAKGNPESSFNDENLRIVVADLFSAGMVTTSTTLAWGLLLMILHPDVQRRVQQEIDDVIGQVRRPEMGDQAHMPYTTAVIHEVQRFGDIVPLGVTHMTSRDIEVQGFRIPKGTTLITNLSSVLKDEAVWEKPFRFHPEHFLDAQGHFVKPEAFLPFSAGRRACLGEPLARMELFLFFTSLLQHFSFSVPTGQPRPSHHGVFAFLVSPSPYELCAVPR
- ASSAY REMARKS: Inhibition of CYP2D6 in human liver microsomes using quinidine […] at 10 uM pretreated with enzyme for 10 mins followed by NADPH-regenerating system addition for 15 mins by LC-MS/MS analysis
- Assay type: ADME, Microsome
Consider the following compounds and their measured inhibition at 25 min, 10 µM readings.
Output spec: scalar in %, unitless text.

SMI	READOUT UNIT	inhibition at 25 min, 10 µM
CN1CCN(Cc2ccc(-c3cnc4[nH]nc(-c5cc(F)cc(NC(=O)Nc6cncnc6)c5)c4c3)cc2)CC1	%	70.8

Now consider a different compound.
# get_value(readout= inhibition at 25 min, 10 µM, system= CYP2D6 (Homo sapiens, UniProt P10635)) for CS(=O)(=O)c1cccc(-c2cnc3[nH]nc(-c4cc(F)cc(NC(=O)Nc5cncnc5)c4)c3c2)c1
46.8
